study system: human CB2 receptors (Homo sapiens (Human), UniProt P34972)
Sequence (P34972 whole entry): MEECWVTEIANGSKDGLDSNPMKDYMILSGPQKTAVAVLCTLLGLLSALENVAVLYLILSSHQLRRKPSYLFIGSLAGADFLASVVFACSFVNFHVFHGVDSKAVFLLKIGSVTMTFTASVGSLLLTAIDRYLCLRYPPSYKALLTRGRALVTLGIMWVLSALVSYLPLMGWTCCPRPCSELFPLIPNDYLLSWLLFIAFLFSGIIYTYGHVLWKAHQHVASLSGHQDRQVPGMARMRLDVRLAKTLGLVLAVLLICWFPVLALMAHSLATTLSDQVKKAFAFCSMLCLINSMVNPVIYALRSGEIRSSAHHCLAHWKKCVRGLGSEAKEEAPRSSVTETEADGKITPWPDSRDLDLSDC
test protocol: cAMP assay, CHO cells expressing human CB2 receptors
Format: cell-based
stated conditions: functional cAMP assay, CHO cells expressing human CB2; read-out: human CB2 EC50
# Lookup of reported EC50 keyed by entry
Returns: string containing the numeric result and its unit.

Example entries begin here.
compound | study system | result
CC(C)C[C@@H](CC(N)=O)NC(=O)c1ccc(C2CC2)c(OCC2CC2)n1 | human CB2 receptors (Homo sapiens (Human), UniProt P34972) | 3 nM
CC(C)[C@@H](CC(N)=O)NC(=O)c1ccc(C2CC2)c(OCC2CC2)n1 | human CB2 receptors (Homo sapiens (Human), UniProt P34972) | 5 nM
NC(=O)CC(NC(=O)c1ccc(C2CC2)c(OCC2CC2)n1)C1CCOC1 (centres unmarked) | human CB2 receptors (Homo sapiens (Human), UniProt P34972) | 5.2 nM
COC(=O)CC1(NC(=O)c2ccc(N3CC(F)(F)C3)c(OCC3CC3)n2)CNC(=O)C1 (centres unmarked) | human CB2 receptors (Homo sapiens (Human), UniProt P34972) | 423 nM
COC(=O)CC1(NC(=O)c2ccc(N3CC(F)(F)C3)c(OCC3CC3)n2)CCC1 | human CB2 receptors (Homo sapiens (Human), UniProt P34972) | 1.1 nM
CC(C)[C@H](CC(N)=O)NC(=O)c1ccc(C2CC2)c(OCC2CC2)n1 | human CB2 receptors (Homo sapiens (Human), UniProt P34972) | 1.5 nM

Query :: # input compound: CCCCCC(CC(=O)NC)NC(=O)c1ccc(N2CC(F)(F)C2)c(OCC2CC2)n1 (centres unmarked) ; wanted: its EC50
Result :: 55.6 nM

Query :: What about CNC(=O)CC1(NC(=O)c2ccc(C(F)(F)F)c(OCC3CC3)n2)COC1 ?
Result :: 599 nM

Cited source for all entries: patent US9522886B2
